The reported measurements were obtained from ChEMBL document CHEMBL5325432.

measurement.notes: Cytotoxicity against human MRC5 cells incubated for 7 days by MTT colorimetric assay
Assay type: toxicity, cell-based
property.name: IC50 at 7 days (µM)

[
  {
    "molecule": "Nc1nc(N)nc(Nc2ccc([As]3SCC(CO)S3)cc2)n1 (stereo unspecified) [MELARSOPROL]",
    "property.name": "IC50 at 7 days",
    "test.value": 12.5
  }
]

---

measurement.notes: Selectivity index, ratio of IC50 for cytotoxicity against African green monkey Vero cells to IC50 for antiparasitic activity against Trypanosoma brucei assessed as parasite growth inhibition
Type: toxicity, cell-based
recorded.conditions: read-out: Ratio IC50
property.name: selectivity ratio

[
  {
    "structure.as.smiles": "CCCCCCCCn1cc(CN[C@H](C)[C@H]2CC[C@H]3[C@@H]4CC=C5C[C@@H](O)CC[C@]5(C)[C@H]4CC[C@]23C)nn1",
    "test.value": "> 6.53"
  },
  {
    "structure.as.smiles": "CC(=O)O[C@H]1CC[C@@]2(C)C(=CC[C@H]3[C@@H]4CC[C@H]([C@@H](C)NCc5cn(C/C=C(\\C)CCC=C(C)C)nn5)[C@@]4(C)CC[C@@H]32)C1",
    "test.value": "> 6.93"
  },
  {
    "structure.as.smiles": "C[C@]12CC[C@H]3[C@@H](CC=C4C[C@@H](O)CC[C@@]43C)[C@@H]1CC[C@@H]2[C@@](C)(O)CNCc1cn(Cc2ccccc2)nn1",
    "test.value": "> 80.3"
  },
  {
    "structure.as.smiles": "CCCCCCCCn1cc(CN[C@@H](C)[C@H]2CC[C@H]3[C@@H]4CC=C5C[C@@H](OC(C)=O)CC[C@]5(C)[C@H]4CC[C@]23C)nn1",
    "test.value": "> 14.6"
  },
  {
    "structure.as.smiles": "C[C@H](NCc1cn(CCCc2ccccc2)nn1)[C@H]1CC[C@H]2[C@@H]3CC=C4C[C@@H](O)CC[C@]4(C)[C@H]3CC[C@]12C",
    "test.value": "> 6.77"
  },
  {
    "structure.as.smiles": "C[C@H](NCc1cn(Cc2ccccc2)nn1)[C@H]1CC[C@H]2[C@@H]3CC=C4C[C@@H](O)CC[C@]4(C)[C@H]3CC[C@]12C",
    "test.value": "> 15"
  },
  {
    "structure.as.smiles": "CCCCCCCCn1cc(CN[C@@H](C)[C@H]2CC[C@H]3[C@@H]4CC=C5C[C@@H](O)CC[C@]5(C)[C@H]4CC[C@]23C)nn1",
    "test.value": "> 17.8"
  },
  {
    "structure.as.smiles": "C[C@]12CC[C@H]3[C@@H](CC=C4C[C@@H](O)CC[C@@]43C)[C@@H]1CC[C@@H]2[C@@](C)(O)Cn1cc(CCCc2ccccc2)nn1",
    "test.value": "> 4.25"
  },
  {
    "structure.as.smiles": "CCOC(=O)Cn1cc(CN[C@@H](C)[C@H]2CC[C@H]3[C@@H]4CC=C5C[C@@H](OC(C)=O)CC[C@]5(C)[C@H]4CC[C@]23C)nn1",
    "test.value": "> 14.4"
  },
  {
    "structure.as.smiles": "CC(=O)O[C@H]1CC[C@@]2(C)C(=CC[C@H]3[C@@H]4CC[C@H]([C@@H](C)NCc5cn(Cc6ccccc6)nn5)[C@@]4(C)CC[C@@H]32)C1",
    "test.value": "> 6.22"
  },
  {
    "structure.as.smiles": "C#CCN[C@H](C)[C@H]1CC[C@H]2[C@@H]3CC=C4C[C@@H](OC(C)=O)CC[C@]4(C)[C@H]3CC[C@]12C",
    "test.value": "> 2.3"
  },
  {
    "structure.as.smiles": "C[C@]12CC[C@H]3[C@@H](CC=C4C[C@@H](O)CC[C@@]43C)[C@@H]1CC[C@@H]2[C@@](C)(O)Cn1cc(CCO)nn1",
    "test.value": "> 6.33"
  }
]

---

Here the recorded selectivity ratio is given for each entry.
measurement.notes: Selectivity index, ratio of IC50 for cytotoxicity against African green monkey Vero cells to IC50 for antiparasitic activity against Trypanosoma brucei assessed as parasite growth inhibition
Assay type: toxicity, cell-based
recorded.conditions: read-out: Ratio IC50
property.name: selectivity ratio

[
  {
    "structure.as.smiles": "CCCCCCCCn1cc(CN[C@H](C)[C@H]2CC[C@H]3[C@@H]4CC=C5C[C@@H](OC(C)=O)CC[C@]5(C)[C@H]4CC[C@]23C)nn1",
    "property.name": "selectivity ratio",
    "test.value": "> 4.57"
  },
  {
    "structure.as.smiles": "CCCCCCCCn1cc(CNC[C@](C)(O)[C@H]2CC[C@H]3[C@@H]4CC=C5C[C@@H](O)CC[C@]5(C)[C@H]4CC[C@@]32C)nn1",
    "property.name": "selectivity ratio",
    "test.value": "> 14.7"
  },
  {
    "structure.as.smiles": "CCOC(=O)Cn1cc(CN[C@H](C)[C@H]2CC[C@H]3[C@@H]4CC=C5C[C@@H](O)CC[C@]5(C)[C@H]4CC[C@]23C)nn1",
    "property.name": "selectivity ratio",
    "test.value": "> 1.59"
  }
]

---

measurement.notes: Cytotoxicity against African green monkey Vero cells incubated for 48 hrs
Format: toxicity, cell-based
recorded.conditions: African green monkey (Chlorocebus sabaeus)
Reported IC50 at 48 h values follow for various molecules

[
  {
    "structure.as.smiles": "CC(=O)O[C@H]1CC[C@@]2(C)C(=CC[C@H]3[C@@H]4CC[C@H]([C@@H](C)NCc5cn(C/C=C(\\C)CCC=C(C)C)nn5)[C@@]4(C)CC[C@@H]32)C1",
    "IC50 at 48 h": "> 8.67 µM"
  },
  {
    "structure.as.smiles": "CCCCCc1cn(C[C@](C)(O)[C@H]2CC[C@H]3[C@@H]4CC=C5C[C@@H](O)CC[C@]5(C)[C@H]4CC[C@@]32C)nn1",
    "IC50 at 48 h": "> 10.6 µM"
  },
  {
    "structure.as.smiles": "CC(C)=CCC/C(C)=C/Cn1cc(CNC[C@](C)(O)[C@H]2CC[C@H]3[C@@H]4CC=C5C[C@@H](O)CC[C@]5(C)[C@H]4CC[C@@]32C)nn1",
    "IC50 at 48 h": "> 8.85 µM"
  }
]

---

measurement.notes: Selectivity index, ratio of IC50 for cytotoxicity against African green monkey Vero cells to IC50 for antileishmanial activity against Leishmania donovani S1 promastigotes assessed as parasite growth inhibition
Type: toxicity, cell-based
recorded.conditions: read-out: Ratio IC50
Consider the following compounds and their measured selectivity ratio readings.

[
  {
    "structure.as.smiles": "C[C@]12CC[C@H]3[C@@H](CC=C4C[C@@H](O)CC[C@@]43C)[C@@H]1CC[C@@H]2[C@@](C)(O)CNCc1cn(Cc2ccccc2)nn1",
    "selectivity ratio": "> 4.95"
  },
  {
    "structure.as.smiles": "CCOC(=O)Cn1cc(CN[C@H](C)[C@H]2CC[C@H]3[C@@H]4CC=C5C[C@@H](O)CC[C@]5(C)[C@H]4CC[C@]23C)nn1",
    "selectivity ratio": "> 1.56"
  },
  {
    "structure.as.smiles": "CCCCCCCCn1cc(CN[C@H](C)[C@H]2CC[C@H]3[C@@H]4CC=C5C[C@@H](O)CC[C@]5(C)[C@H]4CC[C@]23C)nn1",
    "selectivity ratio": "> 3.85"
  }
]

---

measurement.notes: Selectivity index, ratio of IC50 for cytotoxicity against African green monkey Vero cells to IC50 for antiparasitic activity against Trypanosoma brucei assessed as parasite growth inhibition
Type: toxicity, cell-based
recorded.conditions: read-out: Ratio IC50
property.name: selectivity ratio

[
  {
    "compound": "CC(C)=CCC/C(C)=C/Cn1cc(CN[C@@H](C)[C@H]2CC[C@H]3[C@@H]4CC=C5C[C@@H](O)CC[C@]5(C)[C@H]4CC[C@]23C)nn1",
    "property.name": "selectivity ratio",
    "test.value": "> 14.6"
  },
  {
    "compound": "Nc1nc(N)nc(Nc2ccc([As]3SCC(CO)S3)cc2)n1 (stereo not drawn) [MELARSOPROL]",
    "property.name": "selectivity ratio",
    "test.value": 62.5
  },
  {
    "compound": "CCCCCc1cn(C[C@](C)(O)[C@H]2CC[C@H]3[C@@H]4CC=C5C[C@@H](O)CC[C@]5(C)[C@H]4CC[C@@]32C)nn1",
    "property.name": "selectivity ratio",
    "test.value": "> 59.8"
  }
]

---

measurement.notes: Selectivity index, ratio of IC50 for cytotoxicity against African green monkey Vero cells to IC50 for antileishmanial activity against Leishmania donovani S1 promastigotes assessed as parasite growth inhibition
Assay type: toxicity, cell-based
recorded.conditions: read-out: Ratio IC50

[
  {
    "structure.as.smiles": "CC(C)=CCC/C(C)=C/Cn1cc(CNC[C@](C)(O)[C@H]2CC[C@H]3[C@@H]4CC=C5C[C@@H](O)CC[C@]5(C)[C@H]4CC[C@@]32C)nn1",
    "selectivity ratio": "> 11.4"
  },
  {
    "structure.as.smiles": "CCOC(=O)Cn1cc(CN[C@@H](C)[C@H]2CC[C@H]3[C@@H]4CC=C5C[C@@H](OC(C)=O)CC[C@]5(C)[C@H]4CC[C@]23C)nn1",
    "selectivity ratio": "> 1.94"
  },
  {
    "structure.as.smiles": "CCCCCCCCn1cc(CN[C@@H](C)[C@H]2CC[C@H]3[C@@H]4CC=C5C[C@@H](OC(C)=O)CC[C@]5(C)[C@H]4CC[C@]23C)nn1",
    "selectivity ratio": "> 1.15"
  },
  {
    "structure.as.smiles": "CC(=O)O[C@H]1CC[C@@]2(C)C(=CC[C@H]3[C@@H]4CC[C@H]([C@H](C)NCc5cn(CCCc6ccccc6)nn5)[C@@]4(C)CC[C@@H]32)C1",
    "selectivity ratio": "> 2.99"
  },
  {
    "structure.as.smiles": "CC(=O)O[C@H]1CC[C@@]2(C)C(=CC[C@H]3[C@@H]4CC[C@H]([C@H](C)NCc5cn(C/C=C(\\C)CCC=C(C)C)nn5)[C@@]4(C)CC[C@@H]32)C1",
    "selectivity ratio": "> 1.79"
  },
  {
    "structure.as.smiles": "C[C@H](NCc1cn(Cc2ccccc2)nn1)[C@H]1CC[C@H]2[C@@H]3CC=C4C[C@@H](O)CC[C@]4(C)[C@H]3CC[C@]12C",
    "selectivity ratio": "> 7.69"
  }
]
